# system: β-secretase (BACE) (Homo sapiens, UniProt P56817)
# Construct: purchased Panvera
# Sequence (P56817 46-501): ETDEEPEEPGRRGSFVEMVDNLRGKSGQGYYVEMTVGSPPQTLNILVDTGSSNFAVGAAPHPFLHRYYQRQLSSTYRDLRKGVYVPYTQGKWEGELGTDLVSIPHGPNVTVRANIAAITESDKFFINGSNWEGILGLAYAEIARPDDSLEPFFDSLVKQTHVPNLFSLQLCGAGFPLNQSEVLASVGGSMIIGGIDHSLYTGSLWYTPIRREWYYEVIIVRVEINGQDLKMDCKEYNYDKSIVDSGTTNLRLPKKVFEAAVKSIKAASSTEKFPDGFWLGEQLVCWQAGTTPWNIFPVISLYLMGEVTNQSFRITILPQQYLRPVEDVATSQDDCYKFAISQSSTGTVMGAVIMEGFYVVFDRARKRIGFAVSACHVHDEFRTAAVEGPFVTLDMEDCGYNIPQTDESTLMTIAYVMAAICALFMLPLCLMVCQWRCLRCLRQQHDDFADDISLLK
# method_notes: BACE FS1 % Inhibition Assay
# Type: biochemical
# run_conditions: 3 μM test compound
observation_type: % Inhibition (FS) (%)

[P] CCCC(CCCC(=O)N(C)C1CCN(C)CC1)N1Cc2cc(Oc3ccccc3)ccc2N=C1N (stereo not shown)
[Q] COc1ccc(-c2ccc3c(c2)CN(C(CCC(=O)N(C)C2CCCCC2)C2CCCCC2)C(N)=N3)cc1 (stereo not shown)
Query block: Two entries are listed, P and Q . Which one carries the higher % Inhibition (FS)? Please respond with the label that marks your chosen entry.
Result block: P

====

# system: β-secretase (BACE) (Homo sapiens, UniProt P56817)
# Construct: purchased Panvera
# method_notes: BACE FS1 % Inhibition Assay
# Type: biochemical
# run_conditions: 1 μM test compound
observation_type: % Inhibition (FS)

Query block: Requested read-out: % Inhibition (FS). Entry: NC1=Nc2ccc(Oc3ccccc3)cc2CN1Cc1cccc(C(=O)N2CCC3CCCCC3C2)c1 (stereo not shown)
Result block: 34%

Query block: Query (compound): CCCC(=O)NCCN1Cc2cc(-c3ccncc3)ccc2N=C1N ; field requested: % Inhibition (FS)
Result block: <30%

Query block: I have this compound here, NC1=Nc2ccc(Oc3ccccc3)cc2CN1C(CNC(=O)C12CC3CC(CC(C3)C1)C2)C1CCCCC1 (stereo not shown) , and I need its recorded % Inhibition (FS).
Result block: 103%

Query block: Request the reported % Inhibition (FS) associated with CCCC=Cc1ccc2c(c1)CN(CCNC(=O)c1cc(C)oc1C)C(N)=N2
Result block: <30%

Query block: Field request: % Inhibition (FS) | item: CN1CCC(N(C)C(=O)c2cccc(C(c3ccccc3)N3Cc4cc(Oc5ccccc5)ccc4N=C3N)c2)CC1 (stereo not shown)
Result block: <30%

Query block: # lookup: % Inhibition (FS) of NC1=Nc2ccc(-c3ccccc3Cl)cc2CN1CCNC(=O)C12CC3CC(CC(C3)C1)C2
Result block: 51%

====

# system: β-secretase (BACE) (Homo sapiens)
# Construct: purchased Panvera
# method_notes: BACE FS1 % Inhibition Assay
# Type: biochemical
# run_conditions: 3 μM test compound
observation_type: % Inhibition (FS) (%)

[I] NC1=Nc2ccc(Oc3ccccc3)cc2CN1CCCNC1CCCCC1
[II] NC1=Nc2ccc(Oc3ccccc3)cc2CN1Cc1cccc(C(=O)N2CCCC3CCCCC32)c1 (centres unmarked)
[III] CCCC(=O)NCCN1Cc2cc(-c3ccccc3C)ccc2N=C1N
Query block: // TODO: order the 3 compounds above by % Inhibition (FS), descending Form entry: labels listed in requested order.
Result block: III, I, II

[A] COc1ccc(C)cc1-c1ccc2c(c1)CN(CCNC(=O)C1CCCCC1)C(N)=N2
[B] CN(C(=O)c1cccc(CN2Cc3cc(OC4CCCC4)ccc3N=C2N)c1)C1CCCCC1
Query block: Pick the one with the larger % Inhibition (FS): A vs B In your reply, give the label of the chosen option.
Result block: A
(A: 48%, B: 33%)

====

# system: β-secretase (BACE) (Homo sapiens)
# Construct: purchased Panvera
# method_notes: BACE FS1 % Inhibition Assay
# Assay type: biochemical
# run_conditions: 1 μM test compound; read-out: % Inhibition (FS)
# Protocol: The following reagents were used in this assay: sodium acetate, PEG8000 (Sigma), DMSO, HEPES, FS1 substrate [[…]] […] The FS1-substrate stock solution was prepared in DMSO as a 10 mg/mL solution. The FS1-substrate working solution was prepared by diluting the 10 mg/mL stock solution with substrate assay buffer to a final concentration of 300 μg/mL. […] For test compounds, % inhibition was determined at each concentration as follows: [formula]
observation_type: inhibition at 1 µM (%)

> print(dat)
                                   compound                             system    observation.type  value.observed
1  CC(C)C(CNC(=O)C12CC3CC(CC(C3)C1)C2)N1Cc2cc(Oc3ccccc3)ccc2N=C1N (stereo not shown) [Compound 562]  β-secretase (BACE) (Homo sapiens)  inhibition at 1 µM             118
2  NC1=Nc2ccc(Oc3ccccc3)cc2CN1C(CNC(=O)C1CCCC1)C1CCCCC1 (stereo not shown) [Compound 295]  β-secretase (BACE) (Homo sapiens)  inhibition at 1 µM             106

[P] CN(C(=O)c1cccc(CN2Cc3cc(-c4ccccc4Oc4ccccc4)ccc3N=C2N)c1)C1CCCCC1 [Compound 326]
[Q] COc1ccccc1-c1ccc2c(c1)CN([C@@H](CCC(=O)N(C)C1CCCCC1)C1CCCCC1)C(N)=N2 [Compound 506]
[R] NC1=Nc2ccc(-c3ccccc3)cc2CN1CCNC(=O)Cc1ccccc1 [Compound 595]
Query block: Sort ascending by inhibition at 1 µM. Please list each label once, in the requested order.
Result block: P, R, Q

====

# system: β-secretase (BACE) (Homo sapiens, UniProt P56817)
# Construct: purchased Panvera
# method_notes: BACE FS1 % Inhibition Assay
# Assay type: biochemical
# run_conditions: 3 μM test compound
observation_type: % Inhibition (FS) (%)

Sample records with % Inhibition (FS):
> print(dat)
                                   molecule   observation.type  value.observed
1  CC1CCC(C(=O)NCCN2Cc3cc(Oc4ccccc4)ccc3N=C2N)CC1 (centres unmarked)  % Inhibition (FS)              88
2  NC1=Nc2ccc(-c3cccc(CO)c3)cc2CN1CCNC(=O)Cc1ccccc1  % Inhibition (FS)              65

[P] CCCCCC1CCC(C(=O)NCCN2Cc3cc(Oc4ccccc4)ccc3N=C2N)CC1 (centres unmarked)
[Q] CC(C)(C)NS(=O)(=O)c1ccccc1-c1ccc2c(c1)CN(CCNC(=O)C1CCCCC1)C(N)=N2
Query block: Two entries are listed, P and Q . Which one carries the higher % Inhibition (FS)? Please indicate the selected item by its label.
Result block: Q
(Q: 73%, P: 38%)

====

# system: β-secretase (BACE) (Homo sapiens)
# Construct: purchased Panvera
# method_notes: BACE FS1 % Inhibition Assay
# Assay type: biochemical
# run_conditions: 10 μM test compound
observation_type: % Inhibition (FS) (%)

These recorded examples may help you get a feel for the data.
> print(dat)
                                   molecule                             system  u  value.observed
1  CCCCCCCCCC(=O)NCCN1Cc2cc(Oc3ccccc3)ccc2N=C1N  β-secretase (BACE) (Homo sapiens)  %              38
2  CCCC(CCC(=O)NC1CCCCCC1)N1Cc2cc(Oc3ccccc3)ccc2N=C1N (stereo not shown)  β-secretase (BACE) (Homo sapiens)  %             108

[A] NC1=Nc2ccc(Oc3ccccc3)cc2CN1CCCCNC(=O)C1CCCC1
[B] CN(C(=O)c1ccc2c(c1)C(N1Cc3cc(Oc4ccccc4)ccc3N=C1N)CC2)C1CCCCC1 (stereo not shown)
Query block: Which entry shows the lesser value of % Inhibition (FS) here, A or B ? Use the label to indicate which entry you chose.
Result block: B

====

# system: β-secretase (BACE) (Homo sapiens, UniProt P56817)
# Construct: purchased Panvera
# method_notes: BACE FS1 % Inhibition Assay
# Format: biochemical
# run_conditions: 3 μM compound; FS1 substrate; read-out: % Inhibition (FS)
observation_type: inhibition at 3 µM (%)

> print(dat)
                                   compound  value.observed
1  CN(CCCCC(=O)O)C(=O)CC[C@@H](C1CCCCC1)N1Cc2cc(Oc3ccccc3)ccc2N=C1N             109
2  CC(C)N1CCC(N(C)C(=O)CC[C@@H](C2CCCCC2)N2Cc3cc(Oc4ccccc4)ccc3N=C2N)CC1              97
3  CN(C(=O)CCC(C1CCCCC1)N1Cc2cc(Oc3ccccc3)ccc2N=C1N)C(COCc1ccccc1)C(=O)O (stereo not shown)             121
4  CN(C(=O)CC[C@@H](C1CCCCC1)N1Cc2cc(Oc3ccccc3)ccc2N=C1N)C1CCC2(CC1)OCCO2             126

====

# system: β-secretase (BACE) (Homo sapiens, UniProt P56817)
# Construct: purchased Panvera
# method_notes: BACE FS1 % Inhibition Assay
# Assay type: biochemical
# run_conditions: 3 μM compound; FS1 substrate
observation_type: % Inhibition (FS) (%)

> print(dat)
                                    compound   observation.type  value.observed
 1  CC(C)(C)C(=O)NCCN1Cc2cc(-c3cnc4ccccc4c3)ccc2N=C1N [Compound 674]  % Inhibition (FS)              41
 2  CN(C(=O)CCC(C1CCCCC1)N1Cc2cc(Oc3ccccc3)ccc2N=C1N)C1CCC(C(=O)OCc2ccccc2)CC1 (stereo not shown) [Compound 760]  % Inhibition (FS)              89
 3  COc1cccc(F)c1-c1ccc2c(c1)CN(CCNC(=O)C1CCOCC1)C(N)=N2 [Compound 699]  % Inhibition (FS)              93
 4  CN(C(=O)CCC(C)(C)N1Cc2cc(Oc3ccccc3)ccc2N=C1N)C1CCCCC1 [Compound 738]  % Inhibition (FS)              61
 5  NC1=Nc2ccc(Oc3ccccc3)cc2CN1[C@@H](CCC(=O)N[C@@H](CO)C(=O)O)C1CCOCC1 [Compound 771]  % Inhibition (FS)             105
 6  NC1=Nc2ccc(-c3ccccc3Cl)cc2CN1CCNC(=O)CCC(F)(F)F [Compound 682]  % Inhibition (FS)              97
 7  NC1=Nc2ccc(-c3ccccc3)cc2CN1CCNC(=O)CCC(F)(F)F [Compound 684]  % Inhibition (FS)              78
 8  COC(=O)[C@H](COCc1ccccc1)N(C)C(=O)CC[C@@H](C1CCOCC1)N1Cc2cc(Oc3ccccc3)ccc2N=C1N [Compound 786]  % Inhibition (FS)             114
 9  Cc1ccccc1-c1ccc2c(c1)CN(CCNC(=O)C1CCC(C(F)(F)F)CC1)C(N)=N2 (stereo not shown) [Compound 694]  % Inhibition (FS)              84
10  CN(Cc1cc(-c2ccccc2)on1)C(=O)CC[C@@H](C1CCCCC1)N1Cc2cc(-c3ccccc3F)ccc2N=C1N [Compound 724]  % Inhibition (FS)              65

[a] COc1ccccc1-c1ccc2c(c1)CN([C@@H](CCC(=O)N(C)Cc1cc(-c3ccccc3)on1)C1CCCCC1)C(N)=N2 [Compound 719]
[b] NC1=Nc2ccc(-c3ccccc3)cc2CN1CCNC(=O)C1CCC(C(F)(F)F)CC1 (stereo not shown) [Compound 701]
Query block: // compare measured % Inhibition (FS), left a , right b , return larger Output the label that corresponds to your choice.
Result block: a
(a: 81%, b: 54%)
